// data source = ChEMBL document CHEMBL2218924

# tested_target: Serine/threonine-protein kinase PAK 2 (Homo sapiens) (UniProt Q13177)
# Sequence (Q13177 whole entry): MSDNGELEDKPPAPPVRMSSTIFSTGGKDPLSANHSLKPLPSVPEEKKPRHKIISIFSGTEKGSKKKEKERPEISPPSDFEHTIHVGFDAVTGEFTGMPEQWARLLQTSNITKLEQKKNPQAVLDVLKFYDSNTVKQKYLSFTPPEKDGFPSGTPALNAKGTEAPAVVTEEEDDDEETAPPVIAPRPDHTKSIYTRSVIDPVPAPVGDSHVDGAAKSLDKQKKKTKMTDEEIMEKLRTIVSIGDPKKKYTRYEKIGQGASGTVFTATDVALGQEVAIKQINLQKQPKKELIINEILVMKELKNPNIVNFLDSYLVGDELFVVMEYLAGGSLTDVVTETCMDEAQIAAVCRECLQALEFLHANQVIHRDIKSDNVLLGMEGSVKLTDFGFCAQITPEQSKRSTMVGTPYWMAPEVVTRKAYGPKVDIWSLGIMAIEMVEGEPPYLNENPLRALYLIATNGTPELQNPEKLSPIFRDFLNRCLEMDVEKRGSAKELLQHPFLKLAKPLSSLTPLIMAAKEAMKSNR
# experimental_setup: at 10 µM

{"smiles_data": "CCCCc1c(-c2ccc(OC)cc2)[nH]c2nccnc12", "unit_annotation": "%", "residual activity": 103}
{"smiles_data": "O=C1C(Cl)=C(N2C(=O)CCC2=O)C(=O)c2ccccc21", "unit_annotation": "%", "residual activity": 98}
{"smiles_data": "CC(C)(C)n1nc(Cc2cccc3ccccc23)c2c(N)ncnc21", "unit_annotation": "%", "residual activity": 49}
{"smiles_data": "O=C(c1cc2cc(O)ccc2[nH]1)c1cc2cc(O)ccc2[nH]1", "unit_annotation": "%", "residual activity": 83}
{"smiles_data": "Nc1ncnc2c1cnn2-c1ccccc1", "unit_annotation": "%", "residual activity": 97}
{"smiles_data": "O=C1Cc2c([nH]c3ccc(Br)cc23)-c2ccccc2N1", "unit_annotation": "%", "residual activity": 75}
{"smiles_data": "O=C1Cc2c([nH]c3ccc([N+](=O)[O-])cc23)-c2ccccc2N1", "unit_annotation": "%", "residual activity": 30}
{"smiles_data": "O=C1NC(=O)c2c1c1c3ccccc3[nH]c1n1cncc21", "unit_annotation": "%", "residual activity": 89}
{"smiles_data": "O=C1NC(=O)C(c2cn(CCCO)c3ncccc23)=C1c1cnccn1", "unit_annotation": "%", "residual activity": 99}
{"smiles_data": "O=C1Nc2ccc(Cl)cc2/C1=C/c1cc(Cl)c(O)c(Cl)c1", "unit_annotation": "%", "residual activity": 75}
{"smiles_data": "CN([C@@H](Cc1ccc(OS(=O)(=O)c2cccc3cnccc23)cc1)C(=O)N1CCN(c2ccccc2)CC1)S(=O)(=O)c1cccc2cnccc12", "unit_annotation": "%", "residual activity": 98}
{"smiles_data": "Nc1ncnc2[nH]nc(Nc3ccc(F)cc3)c12", "unit_annotation": "%", "residual activity": 109}
{"smiles_data": "COc1cc2ncnc(Nc3cccc(Cl)c3)c2cc1OC", "unit_annotation": "%", "residual activity": 111}
{"smiles_data": "Nc1ncnc2c1c(-c1ccc(Oc3ccccc3)cc1)cn2C1CCCC1", "unit_annotation": "%", "residual activity": 61}
{"smiles_data": "CCCC(=O)Oc1ccc2[nH]c(C(=O)c3cc4ccccc4[nH]3)cc2c1", "unit_annotation": "%", "residual activity": 86}

----------
Below, each entry is listed alongside its reported residual activity.
# tested_target: Serine/threonine-protein kinase Nek3 (Homo sapiens) (UniProt P51956);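 note: residual NEK3 kinase activity given as percent of control, assayed in 8 mM MOPS buffer pH 7.0 containing 0.2 mM EDTA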
# Sequence (whole entry): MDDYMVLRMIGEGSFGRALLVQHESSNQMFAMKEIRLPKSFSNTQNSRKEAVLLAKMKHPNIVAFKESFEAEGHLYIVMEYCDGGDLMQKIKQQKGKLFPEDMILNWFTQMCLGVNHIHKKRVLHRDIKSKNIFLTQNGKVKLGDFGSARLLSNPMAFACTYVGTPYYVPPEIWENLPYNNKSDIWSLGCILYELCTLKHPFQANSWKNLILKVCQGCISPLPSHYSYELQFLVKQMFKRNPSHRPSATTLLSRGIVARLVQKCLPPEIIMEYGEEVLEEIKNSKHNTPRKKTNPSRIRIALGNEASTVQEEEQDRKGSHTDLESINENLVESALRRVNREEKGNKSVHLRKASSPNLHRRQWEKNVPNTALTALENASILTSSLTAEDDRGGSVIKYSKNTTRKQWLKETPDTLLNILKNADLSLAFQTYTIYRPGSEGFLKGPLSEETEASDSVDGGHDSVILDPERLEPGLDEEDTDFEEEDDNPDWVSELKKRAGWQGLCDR
# experimental_setup: at 1 µM
# Description: Millipore: Percentage of residual kinase activity of NEK3 at 1uM relative to control. Control inhibitor: Phosphoric acid* at 0.3uM. Buffer: 8 mM MOPS pH 7.0, 0.2 mM EDTA

{"compound": "COc1cc2ncnc(Nc3cccc(Cl)c3)c2cc1OC", "unit_annotation": "%", "residual activity": 111}
{"compound": "O=C(O)/C=C/c1cc(Br)c(Br)c(Br)c1Br", "unit_annotation": "%", "residual activity": 81}
{"compound": "Cn1sc(=O)n(Cc2ccccc2)c1=O", "unit_annotation": "%", "residual activity": 83}
{"compound": "O=C(NC(NC(=S)Nc1ccc(F)c([N+](=O)[O-])c1)C(Cl)(Cl)Cl)C(c1ccccc1)c1ccccc1 (stereo not drawn)", "unit_annotation": "%", "residual activity": 94}
{"compound": "NC(=O)c1ccc(-c2nc(-c3ccc4c(c3)OCCO4)c(-c3ccccn3)[nH]2)cc1", "unit_annotation": "%", "residual activity": 85}
{"compound": "Nc1n[nH]c2nc3ccccc3nc12", "unit_annotation": "%", "residual activity": 80}
{"compound": "Oc1cccc(-c2nc(N3CCOCC3)c3oc4ncccc4c3n2)c1", "unit_annotation": "%", "residual activity": 117}
{"compound": "CC(C)[C@H](CO)Nc1nc(Nc2cc(N)cc(Cl)c2)c2ncn(C(C)C)c2n1", "unit_annotation": "%", "residual activity": 85}
{"compound": "O=C(c1cc2cc(O)ccc2[nH]1)c1cc2cc(O)ccc2[nH]1", "unit_annotation": "%", "residual activity": 111}
{"compound": "CCCCc1c(-c2ccc(OC)cc2)[nH]c2nccnc12", "unit_annotation": "%", "residual activity": 87}
{"compound": "NC(=O)Nc1sc(-c2ccc(F)cc2)cc1C(N)=O", "unit_annotation": "%", "residual activity": 69}
{"compound": "Cn1c2ccccc2c2c3c(c4c5ccccc5n(CCC#N)c4c21)CNC3=O", "unit_annotation": "%", "residual activity": 100}
{"compound": "CSc1nc(-c2ccc(F)cc2)c(-c2ccnc(NC(C)c3ccccc3)c2)[nH]1 (stereo not drawn)", "unit_annotation": "%", "residual activity": 95}

----------
# tested_target: Insulin-like growth factor 1 receptor (Homo sapiens)
# experimental_setup: at 1 µM
assay_endpoint: residual activity (%)

{"smiles_data": "N#Cc1c(NC(=O)c2cccc3ccccc23)sc2c1CCCC2", "tested_target": "Insulin-like growth factor 1 receptor (Homo sapiens)", "experimental_value": 136}
{"smiles_data": "Cn1c2ccccc2c2c3c(c4c5ccccc5n(CCC#N)c4c21)CNC3=O", "tested_target": "Insulin-like growth factor 1 receptor (Homo sapiens)", "experimental_value": 145}
{"smiles_data": "O=C(c1ccccc1)c1ccc(N2CCOCC2)cc1O", "tested_target": "Insulin-like growth factor 1 receptor (Homo sapiens)", "experimental_value": 76}
{"smiles_data": "CC(C)c1nn(-c2c(Cl)cccc2Cl)c2nc(Cc3ccc(OCCO)cc3)[nH]c(=O)c12", "tested_target": "Insulin-like growth factor 1 receptor (Homo sapiens)", "experimental_value": 135}

----------
# tested_target: Tyrosine-protein kinase receptor UFO (Homo sapiens)
# experimental_setup: at 1 µM
Kindly return Met if reported residual activity is no lower than 80%; return Not met if it is lower.

{"smiles_data": "Cc1cc(C)c(/C=C2\\C(=O)Nc3ccccc32)[nH]1", "category_label": "Not met"}
{"smiles_data": "CCN1/C(=C/C(C)=O)Sc2ccc(OC)cc21", "category_label": "Not met"}
{"smiles_data": "CC(C)N(CCC(=O)c1ccc2ccccc2c1)Cc1ccccc1", "category_label": "Not met"}
{"smiles_data": "CN(C)S(=O)(=O)c1ccc2c(c1)/C(=C/c1cc3c([nH]1)CCCC3)C(=O)N2", "category_label": "Not met"}
{"smiles_data": "O=C(c1ccccc1)c1ccc(N2CCOCC2)cc1O", "category_label": "Met"}
{"smiles_data": "O=C1NC(=O)c2c1c1c3ccccc3[nH]c1n1cncc21", "category_label": "Met"}
{"smiles_data": "CC(C)c1nn(-c2c(Cl)cccc2Cl)c2nc(Cc3ccc(OCCO)cc3)[nH]c(=O)c12", "category_label": "Met"}
{"smiles_data": "CCCCc1c(-c2ccc(O)cc2)[nH]c2nccnc12", "category_label": "Met"}

----------
Known residual activity of a selection of compounds
# tested_target: Phosphorylase b kinase gamma catalytic chain, liver/testis isoform (Homo sapiens)
# experimental_setup: at 10 µM
assay_endpoint: residual activity (%)

{"smiles_data": "O=C1Nc2ccccc2/C1=C\\c1c(Cl)[nH]c2ccccc12", "assay_endpoint": "residual activity", "unit_annotation": "%", "experimental_value": 87}
{"smiles_data": "O=C(CCCc1ccc(-c2ccccc2F)cc1)Nc1ccc(O)cc1", "assay_endpoint": "residual activity", "unit_annotation": "%", "experimental_value": 112}
{"smiles_data": "CN(C)S(=O)(=O)c1ccc2c(c1)/C(=C/c1cc3c([nH]1)CCCC3)C(=O)N2", "assay_endpoint": "residual activity", "unit_annotation": "%", "experimental_value": 46}
{"smiles_data": "CCN(CC)CCNC(=O)c1c(C)[nH]c(/C=C2\\C(=O)Nc3ccc(Cl)cc32)c1C", "assay_endpoint": "residual activity", "unit_annotation": "%", "experimental_value": 2}
{"smiles_data": "O=C1Nc2ccc(Cl)cc2/C1=C/c1cc(Cl)c(O)c(Cl)c1", "assay_endpoint": "residual activity", "unit_annotation": "%", "experimental_value": 83}
{"smiles_data": "CC(C)(C)n1nc(Cc2cccc3ccccc23)c2c(N)ncnc21", "assay_endpoint": "residual activity", "unit_annotation": "%", "experimental_value": 109}
